Below: a set of entries, each annotated with reported TGI.
test system: SK-OV-3 ovarian; test: NCI tumour cell line growth inhibition, 48 h
Where a SMILES comes first, the peptide text is derived from it. Bridges are numbered along the chain shown (N, C = ends). [ ]: non-standard residue; d: D form. The star is where a group is joined. Cya = N[CH](CS(=O)(=O)O)C(=O)O; X49 = CC(C)CCCCCCCC(O)CC(=O)*; GABA = NCCCC(=O)O

Some entries whose results are on file:
CCC[CH2][Sn]1([CH2]CCC)[O]CC(c2ccccn2)C[O]1 | 84.8 µM
CC(C)Sc1nncc(/C(N)=N/O)n1 | > 100 µM
Cc1c2ccccc2c(C)n2c1nc1cc3ccccc3cc12 | 7.74 µM
Cn1cc(C2=C(c3cn(C)c4ccc(OCc5ccccc5)cc34)C(=O)NC2=O)c2ccccc21 | > 25 µM
CCOC(=O)C(CS)NC(=O)CCCCCCCC(=O)O (stereo not given) | > 100 µM

input: What TGI value was documented for this compound, CC(C)CCCCCCCC(O)CC(=O)NC(CS(=O)(=O)O)C(=O)NC(CC(C)C)C(=O)NCCCC(=O)NC(Cc1cnc[nH]1)C(=O)NC(C)C(=O)NC1C(=O)NC(C(C)O)C(=O)NC(Cc2cnc[nH]2)C(=O)NC(C)C(=O)NC(C(C)O)C(=O)OC1C (stereo not given) (X49-[Cya]L[GABA]HATTHAT; ester 6-C; configuration not given here) ?
output: > 25 µM

input: What TGI value was documented for this compound, COc1ccc(C2c3c(n(C)c(=O)n(C)c3=O)OC(N(C)C)(N(C)C)C2(F)F)cc1 (stereo not given) ?
output: > 100 µM

input: What TGI value was documented for this compound, C=CCSSC1N=CNc2nc[nH]c21 (stereo not given) ?
output: > 88.6 µM

input: What TGI value was documented for this compound, COc1cc2c(cc1OC)C1c3ccccc3CCCN1CC2 (stereo not given) ?
output: > 100 µM

input: What TGI value was documented for this compound, CC(NS(=O)(=O)c1ccc(Cl)cc1)C(=O)O (stereo not given) ?
output: > 100 µM

input: What TGI value was documented for this compound, c1ccc2c(c1)CN1CCCC1CN2 (stereo not given) ?
output: > 100 µM

----------
system: SK-MEL-28 melanoma; assay: NCI tumour cell line growth inhibition, 48 h
readout kind: TGI

Some entries whose results are on file:
COc1cc(C2C(C(=O)O)=C(CO)Oc3cc4c(cc32)OCO4)cc(OC)c1OC (stereo unspecified) | > 100 µM
CC(=O)OC1COC(n2c3ccccc3c3ccc4c5ccccc5[nH]c4c32)C(OC(C)=O)C1OC(C)=O (stereo unspecified) | > 100 µM

input: What TGI value was documented for this molecule, `O=C(Nc1ccc(OCc2nnc(-c3ccc(Cl)cc3)o2)c(F)c1)Nc1ccc(Cl)c(Cl)c1` ?
output: 28.6 µM

input: What TGI value was documented for this molecule, `NC(=Nc1ccc(Cl)cc1)c1ccccc1N` ?
output: > 100 µM

input: What TGI value was documented for this molecule, `O=C(C=P(c1ccccc1)(c1ccccc1)c1ccccc1)CC(=S)CC(=O)C=P(c1ccccc1)(c1ccccc1)c1ccccc1` ?
output: > 100 µM

input: What TGI value was documented for this molecule, `CCCCCCC[CH2][Sn]([Cl])([Cl])[CH2]CCCCCCC` ?
output: 12.9 µM

input: What TGI value was documented for this molecule, `Cc1ccc(-c2c(C#N)c(-c3ccccc3)c(C#N)c(=O)n2NS(=O)(=O)c2ccc(C)cc2)cc1` ?
output: > 100 µM

input: What TGI value was documented for this molecule, CC(C)CC(N=Cc1nc(-c2ccccc2)oc1O)C(=O)O (stereo unspecified) ?
output: > 100 µM

input: What TGI value was documented for this molecule, C[C@]12CC[C@H](O)CC1=CC[C@@H]1C2CC[C@]2(C)NC(=O)C(C#N)CC12 (stereo partly specified) ?
output: > 100 µM

input: What TGI value was documented for this molecule, CC1c2ccccc2Cn2cc3c(c21)C(=O)c1cccc(OP(=O)(O)OCc2ccccc2)c1C3=O (stereo unspecified) ?
output: > 100 µM

input: What TGI value was documented for this molecule, COc1ccc(OC)c2c(C(=O)O)c(C(C)c3ccccc3)ccc12 (stereo unspecified) ?
output: > 100 µM

input: What TGI value was documented for this molecule, `COC(=O)c1cc(CC2Cc3cc4c(cc3C2)CCC4)cc2c1CCC2` ?
output: > 100 µM

input: What TGI value was documented for this molecule, `COC(=O)C(=Cc1ccccc1[N+](=O)[O-])C(=O)OC` ?
output: 6.06 µM

input: What TGI value was documented for this molecule, `CCOC(=O)C1=NC(c2ccccc2)(c2ccccc2)OC1=C(Cl)Cl` ?
output: > 100 µM

input: What TGI value was documented for this molecule, COc1cc2c(cc1OC)C1c3ccccc3CCCN1CC2 (stereo unspecified) ?
output: > 100 µM

input: What TGI value was documented for this molecule, `CC(=O)Nc1cccc(C#Cc2cncnc2Nc2ccc(OCc3cccc(F)c3)c(Cl)c2)n1` ?
output: > 25 µM

input: What TGI value was documented for this molecule, C=C1CC(Cn2cc(C)c(=O)[nH]c2=O)(c2ccc(Cl)cc2)OC1=O (stereo unspecified) ?
output: 4.44 µM

input: What TGI value was documented for this molecule, NC(C(=O)O)c1cc(=O)[nH]o1 (stereo unspecified) ?
output: > 100 µM

input: What TGI value was documented for this molecule, `Clc1ccc(Cl)c(NNc2cc(Cl)ccc2Cl)c1` ?
output: > 10 µM

input: What TGI value was documented for this molecule, `Clc1nc(Cl)c2ncn(CC#CCn3cnc4c(Cl)nc(Cl)nc43)c2n1` ?
output: 3.39 µM

input: What TGI value was documented for this molecule, `Clc1ccc(-c2noc(CN3CCCCC3)n2)cc1` ?
output: > 100 µM

----------
test system: UACC-62 melanoma; assay: NCI tumour cell line growth inhibition, 48 h
Below: a set of entries, each annotated with reported TGI.

Some entries whose results are on file:
Cc1ccc2cc3c(N)c4c(C)ccc(C)c4nc3nc2c1 | 22 µM
NS(=O)(=O)c1ccc(N=Nc2ncccc2O)cc1 | > 100 µM
c1ccc(N2CCN(CN3CCN(c4ccccc4)C3)C2)cc1 | > 100 µM
OC1(c2ccccc2)CSc2ncnn21 (stereo unspecified) | > 100 µM
CC(C)(C)OCC1NC(=O)[C@@H]2Cc3c([nH]c4ccccc34)C(C3CCCCC3)N2C1=O (stereo partly specified) | 31.2 µM
ClCc1nn(-c2ccccc2)c(CCl)c1CCl | 14.4 µM
CC(=O)OC1COC(n2c3ccccc3c3ccc4c5ccccc5[nH]c4c32)C(OC(C)=O)C1OC(C)=O (stereo unspecified) | > 100 µM
C=C1CCC(O)C/C1=C/C=C1\CCCC2(C)C1CCC2C(C)CCCC(C)C (stereo unspecified) | 34.9 µM

input: What TGI value was documented for this compound, `O=C(CC(=O)Nc1ccc(C(=O)O)cc1)Nc1ccc(C(=O)O)cc1` ?
output: > 100 µM

input: What TGI value was documented for this compound, CC1(C)C2CCC1(C)[C@H](O)[C@H]2Nc1cc(C(F)(F)F)cc(C(F)(F)F)c1 (stereo partly specified) ?
output: > 100 µM

input: What TGI value was documented for this compound, `O=C1Cc2ccccc2N1/N=C\c1ccc([N+](=O)[O-])cc1` ?
output: > 100 µM

----------
Below: a set of entries, each annotated with reported TGI.
test system: HOP-62 NSCLC; test: NCI tumour cell line growth inhibition, 48 h

Cc1ccc(C2(C)CC/C(=N/N=C3/CCC(C)(c4ccc(C)c(C)c4)c4cc(C)c(C)cc43)c3cc(C)c(C)cc32)cc1C (stereo unspecified) | > 100 µM
COc1cc2c3c(c1O)N=NC=3CCN=2 | 97.3 µM
CCCCCC(=O)n1[nH]c(=O)n(-c2ccc(OC)cc2)c1=O | > 100 µM

input: What TGI value was documented for this compound, `COC(=O)/C=C1/SC(=Nc2ccc(C(F)(F)F)cc2)N(CCc2c[nH]c3ccc(O)cc23)C1=O` ?
output: 3.85 µM

input: What TGI value was documented for this compound, `Clc1nc(Cl)c2ncn(CC#CCn3cnc4c(Cl)nc(Cl)nc43)c2n1` ?
output: 3.89 µM

input: What TGI value was documented for this compound, `CC(C)(NO)/C(=N\O)c1ccco1` ?
output: > 100 µM

input: What TGI value was documented for this compound, `COc1ccc([C@H]2[C@H](C)C3=Nc4ccccc4CN32)cc1` ?
output: > 100 µM

input: What TGI value was documented for this compound, `CCOC(=O)c1sc2nc(SC)nc(Nc3ccc4c(c3)OCO4)c2c1N` ?
output: > 100 µM

input: What TGI value was documented for this compound, `O=C(Nc1ccc(OCc2nnc(-c3ccc(Cl)cc3)o2)c(F)c1)Nc1ccc(Cl)c(Cl)c1` ?
output: 19.5 µM

input: What TGI value was documented for this compound, `Cc1ccc(-c2c(C#N)c(-c3ccccc3)c(C#N)c(=O)n2NS(=O)(=O)c2ccc(C)cc2)cc1` ?
output: > 100 µM

input: What TGI value was documented for this compound, `Cn1cnc2[nH]c(=O)[nH]c(=S)c21` ?
output: > 100 µM

input: What TGI value was documented for this compound, COc1ccc(OC)c2c(C(=O)O)c(C(C)c3ccccc3)ccc12 (stereo unspecified) ?
output: > 100 µM

input: What TGI value was documented for this compound, `CC(C)Sc1nncc(/C(N)=N/O)n1` ?
output: > 100 µM

input: What TGI value was documented for this compound, CC1OC2=N[C@@H]1C(=O)N[C@@H](Cc1ccccc1)C1=N[C@H](C(=O)N[C@@H](Cc3ccccc3)C3=N[C@H](C(=O)N[C@H]2Cc2ccccc2)C(C)O3)C(C)O1 (stereo partly specified) ?
output: > 100 µM

input: What TGI value was documented for this compound, COc1cccc2c1C(=O)C1(O)CCCCC21 (stereo unspecified) ?
output: > 100 µM

input: What TGI value was documented for this compound, `NC(=Nc1ccc(Cl)cc1)c1ccccc1N` ?
output: > 100 µM

Source of measurements: PubChem BioAssay (NCI)
